pKi: −log10 of the molar value.
Heads up, these compounds all have pKi values measured for JAK2 (Homo sapiens (Human), UniProt O60674).

{"COMPOUND": "O=C1NCc2nc(-c3c(F)cccc3F)cc(Nc3ccc(N4CCCC5(CCO5)C4)cn3)c21 (stereo not shown)", "pKi": "7.00 to 8.00"}
{"COMPOUND": "N#Cc1cccc(F)c1-c1cc(Nc2ccc(N3C[C@H]4COC[C@H]4C3)cn2)c2c(n1)CNC2=O", "pKi": "7.00 to 8.00"}
{"COMPOUND": "N#Cc1cccc(F)c1-c1cc(Nc2ccc(N3CC[C@@]4(C[C@@H](O)CO4)C3)cn2)c2c(n1)CNC2=O [Compound I-90]", "pKi": "≥ 8.00"}
{"COMPOUND": "O=C1NCc2nc(-c3c(F)cccc3F)cc(Nc3ccc(N4CCOCC45CC5)cn3)c21", "pKi": "≥ 8.00"}
{"COMPOUND": "O=C1NCc2nc(-c3c(F)cccc3F)nc(Nc3ccc([C@H](O)C(F)(F)F)cc3)c21", "pKi": "6.00 to 7.00"}
{"COMPOUND": "CC(O)(c1ccc(Nc2nc(-c3c(F)cccc3F)nc3c2C(=O)NC3)cc1)C(F)(F)F (stereo not shown)", "pKi": "6.00 to 7.00"}
{"COMPOUND": "N#Cc1cccc(F)c1-c1cc(Nc2ccc(N3CCC4(C[C@H](O)CO4)C3)cn2)c2c(n1)CNC2=O (stereo in doubt)", "pKi": "≥ 8.00"}

====

Target: TYK2 (Homo sapiens (Human), UniProt P29597)
Sequence (P29597 whole entry): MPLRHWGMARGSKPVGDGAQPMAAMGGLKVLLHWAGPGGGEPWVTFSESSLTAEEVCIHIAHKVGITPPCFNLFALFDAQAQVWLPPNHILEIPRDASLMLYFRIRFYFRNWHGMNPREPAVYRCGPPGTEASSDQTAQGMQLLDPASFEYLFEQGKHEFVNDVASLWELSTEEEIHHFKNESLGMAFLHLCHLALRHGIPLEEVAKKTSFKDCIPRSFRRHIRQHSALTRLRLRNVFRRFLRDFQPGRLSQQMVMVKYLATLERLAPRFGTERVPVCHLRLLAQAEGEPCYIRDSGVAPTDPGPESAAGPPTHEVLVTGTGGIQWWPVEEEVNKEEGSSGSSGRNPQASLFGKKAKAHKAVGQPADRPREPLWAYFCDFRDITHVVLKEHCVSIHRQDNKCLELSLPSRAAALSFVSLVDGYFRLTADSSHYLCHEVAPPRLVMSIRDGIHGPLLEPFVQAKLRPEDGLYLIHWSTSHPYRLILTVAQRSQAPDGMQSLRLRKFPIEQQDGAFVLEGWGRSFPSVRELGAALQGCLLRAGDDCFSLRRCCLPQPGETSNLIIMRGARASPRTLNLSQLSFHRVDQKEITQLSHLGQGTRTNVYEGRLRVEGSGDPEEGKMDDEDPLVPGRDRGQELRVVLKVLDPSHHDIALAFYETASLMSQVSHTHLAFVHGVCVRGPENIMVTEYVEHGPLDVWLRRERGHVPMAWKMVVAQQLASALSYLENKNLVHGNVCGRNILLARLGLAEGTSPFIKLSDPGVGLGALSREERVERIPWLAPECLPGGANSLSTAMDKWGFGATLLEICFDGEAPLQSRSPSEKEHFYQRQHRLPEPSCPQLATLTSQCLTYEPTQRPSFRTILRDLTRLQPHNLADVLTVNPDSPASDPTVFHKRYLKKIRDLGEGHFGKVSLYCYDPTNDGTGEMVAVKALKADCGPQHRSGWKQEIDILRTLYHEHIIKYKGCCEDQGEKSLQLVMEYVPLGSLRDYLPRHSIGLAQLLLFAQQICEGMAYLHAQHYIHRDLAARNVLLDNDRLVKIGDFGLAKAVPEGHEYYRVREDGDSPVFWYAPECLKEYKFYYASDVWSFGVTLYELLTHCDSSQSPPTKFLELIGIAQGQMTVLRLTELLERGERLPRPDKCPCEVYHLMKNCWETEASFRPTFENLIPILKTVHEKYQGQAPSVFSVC

{"COMPOUND": "O=C1NCc2nc(-c3c(F)cccc3F)cc(Nc3ccc(C(=O)N4CCC5(CCOCC5)CC4)cc3)c21", "Ki": "≤ 10 nM"}
{"COMPOUND": "O=C1CCOc2cc(Nc3cc(-c4c(F)cccc4F)nc4c3C(=O)NC4)ccc21", "Ki": "10 to 100 nM"}
{"COMPOUND": "O=C1NCc2nc(-c3c(F)cccc3F)cc(Nc3ccc(C(=O)N4CCC5(CCCCO5)CC4)cc3)c21", "Ki": "≤ 10 nM"}
{"COMPOUND": "CC(O)(c1ccc(Nc2nc(-c3c(F)cccc3F)nc3c2C(=O)NC3)cc1)C(F)(F)F (stereo not shown)", "Ki": "≤ 10 nM"}

====

Target: TYK2 (Homo sapiens (Human), UniProt P29597)

{"COMPOUND": "CCNC(=O)C(C)(C)c1ccc(Nc2cc(-c3c(F)cccc3F)nc3c2C(=O)NC3)cc1 [Compound I-67]", "Ki": "≤ 0.01 µM"}
{"COMPOUND": "CCNC(=O)[C@](C)(O)c1ccc(Nc2nc(-c3c(F)cccc3F)nc3c2C(=O)NC3)cc1 [Compound I-16]", "Ki": "≤ 0.01 µM"}
{"COMPOUND": "N#Cc1cccc(F)c1-c1cc(Nc2ccc(N3C[C@H]4COC[C@H]4C3)cn2)c2c(n1)CNC2=O [Compound I-76]", "Ki": "≤ 0.01 µM"}
{"COMPOUND": "CN1C(=O)[C@](C)(c2ccc(Nc3nc(-c4c(F)cccc4F)nc4c3C(=O)NC4)cc2)Oc2ccccc21 [Compound I-40]", "Ki": "0.1 to 1 µM"}
{"COMPOUND": "CCNC(=O)C(C)(C)c1ccc(Nc2cc(-c3c(F)cccc3C#N)nc3c2C(=O)NC3)cc1 [Compound I-81]", "Ki": "≤ 0.01 µM"}
{"COMPOUND": "CN1C(=O)C(C)(c2ccc(Nc3nc(-c4c(F)cccc4F)nc4c3C(=O)NC4)cc2)c2ccccc21 (stereo not shown) [Compound I-48]", "Ki": "0.01 to 0.1 µM"}
{"COMPOUND": "C[C@@](O)(C(=O)O)c1ccc(Nc2nc(-c3c(F)cccc3F)nc3c2C(=O)NC3)cc1 [Compound I-7]", "Ki": "≤ 0.01 µM"}
